Listed here are compounds together with their documented TGI.
# Tested on: SN12C renal
# MEASUREMENT PROTOCOL: NCI tumour cell line growth inhibition, 48 h
Quick reminder: number only, in µM, skip the unit.

Fill in the blank: the reported TGI of CCCCCC(O)(CCCCC)CCCCCCCCC1=C(O)c2ccccc2C(=O)C1=O is ____. 23.5

// lookup TGI for O=C(O)c1ccc([S-])cc1.[Au+].c1ccc(CN2[CH-]N(Cc3ccccc3)C(c3ccccc3)=C2c2ccccc2)cc1 1.3

Given the compound CCCCN=C(NC#N)N(Cc1ccccc1)Cc1ccccc1 , what is its reported TGI? 82

Any idea what its TGI is? The compound is CCC/C(Cl)=N\OC(=O)Nc1ccc(F)c([N+](=O)[O-])c1 72.2

Any idea what its TGI is? The compound is Cn1c(/C=C(\C#N)c2cccc(C(F)(F)F)c2)nc2c(N3CCOCC3)nc(Cl)nc21 2.14
